These data points were gathered from patent US20050153894A1.

- targetOrTestSystem: CDK2/cyclin A (Homo sapiens, UniProt P20248)
- assayDetails: CDK2/cyclin A kinase assay, substrate pRb(773-928)
- Assay type: biochemical
- conditionDescription: Ile158 substitutions; relative to H-His-Ala-Lys-Arg-Arg-Leu-Ile-Phe-NH2 (=1); pRb substrate, [ATP] = 100 μM
Square brackets hold non-standard residues; d marks the D form. Cha = N[C@@H](CC1CCCCC1)C(=O)O; Nva = CCC[C@H](N)C(=O)O
For each entry below, report its Relative activity Kinase Inhibition value.
Answer using only a numeral; do not append any unit.

query: Dear colleague, I am looking for the recorded Relative activity Kinase Inhibition of the following substance: H-His-Ala-Lys-Arg-Arg-Leu-Cha-Phe-NH2 (H-HAKRRL[Cha]F-NH2; SMILES CC(C)C[C@H](NC(=O)[C@H](CCCNC(=N)N)NC(=O)[C@H](CCCNC(=N)N)NC(=O)[C@H](CCCCN)NC(=O)[C@H](C)NC(=O)[C@@H](N)Cc1c[nH]cn1)C(=O)N[C@@H](CC1CCCCC1)C(=O)N[C@@H](Cc1ccccc1)C(N)=O)
result: 0.3

query: Dear colleague, I am looking for the recorded Relative activity Kinase Inhibition of the following substance: H-His-Ala-Lys-Arg-Arg-Leu-Nva Phe-NH2 (H-HAKRRL[Nva]F-NH2; SMILES CCC[C@H](NC(=O)[C@H](CC(C)C)NC(=O)[C@H](CCCNC(=N)N)NC(=O)[C@H](CCCNC(=N)N)NC(=O)[C@H](CCCCN)NC(=O)[C@H](C)NC(=O)[C@@H](N)Cc1c[nH]cn1)C(=O)N[C@@H](Cc1ccccc1)C(N)=O)
result: 0.2

###

- targetOrTestSystem: CDK1/Cyclin B (Homo sapiens, UniProt P14635)
- Construct: 6xHis; made in house; host or cells: Sf9 insect cells (baculovirus co-expression)
- Sequence (P14635 whole entry): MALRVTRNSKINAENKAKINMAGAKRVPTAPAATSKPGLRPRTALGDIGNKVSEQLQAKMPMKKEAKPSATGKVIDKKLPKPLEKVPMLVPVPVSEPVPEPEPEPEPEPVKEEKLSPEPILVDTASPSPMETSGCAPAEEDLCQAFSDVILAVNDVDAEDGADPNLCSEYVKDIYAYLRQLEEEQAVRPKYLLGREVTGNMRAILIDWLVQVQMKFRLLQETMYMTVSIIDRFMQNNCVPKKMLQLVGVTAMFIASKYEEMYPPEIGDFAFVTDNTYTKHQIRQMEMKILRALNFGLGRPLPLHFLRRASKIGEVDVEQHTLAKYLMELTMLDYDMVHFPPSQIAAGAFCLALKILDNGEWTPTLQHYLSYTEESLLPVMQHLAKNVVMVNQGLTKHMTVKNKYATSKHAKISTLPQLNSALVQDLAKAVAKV
- Sequence (P06493 whole entry partner): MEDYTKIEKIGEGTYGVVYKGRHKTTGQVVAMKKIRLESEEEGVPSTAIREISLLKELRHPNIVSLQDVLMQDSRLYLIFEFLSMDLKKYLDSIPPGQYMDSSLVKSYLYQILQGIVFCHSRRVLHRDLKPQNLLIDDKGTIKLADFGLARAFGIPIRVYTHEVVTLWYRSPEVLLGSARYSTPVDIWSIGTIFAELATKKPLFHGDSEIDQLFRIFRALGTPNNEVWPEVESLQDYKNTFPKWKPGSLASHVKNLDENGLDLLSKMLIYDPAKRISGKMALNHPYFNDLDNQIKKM
- assayDetails: CDK1/Cyclin B kinase assay, phosphorylation of GST-Rb
- Assay type: biochemical
- conditionDescription: CDK1-Cyclin B induced phosphorylation of GST-Rb
pIC50: −log10 of the molar value.
For each entry below, report its pIC50 value.

query: Dear colleague, I am looking for the recorded pIC50 of the following substance: H-DFYHSKRRLIFS-NH2 [p21(149-160)]
result: < 3.70

query: Dear colleague, I am looking for the recorded pIC50 of the following substance: H-DFYHSKRRLIF-NH2 [p21(149-159)]
result: < 3.70

###

- targetOrTestSystem: Cyclin A (Homo sapiens)
- assayDetails: Cyclin A binding assay, immobilised biotinyl-Ahx-[…]NH2
- conditionDescription: His152 substitutions; relative to H-His-Ala-Lys-Arg-Arg-Leu-Ile-Phe-NH2 (=1)
experimentalReadout: Relative activity Cyclin A Binding

query: Dear colleague, I am looking for the recorded Relative activity Cyclin A Binding of the following substance: H-Dab-Ala-Lys-Arg-Arg-Leu-Ile Phe-NH2 (XAKRRLIF; N-terminal Dab, C-terminal amide)
result: 0.4

query: Dear colleague, I am looking for the recorded Relative activity Cyclin A Binding of the following substance: H-Pya-Ala-Lys-Arg-Arg-Leu-Ile Phe-NH2 (XAKRRLIF; N-terminal Pya, C-terminal amide)
result: 0.2

query: Dear colleague, I am looking for the recorded Relative activity Cyclin A Binding of the following substance: H-Ala-Ala-Lys-Arg-Arg-Leu-Ile Phe-NH2 (H-AAKRRLIF-NH2)
result: 2.5

query: Dear colleague, I am looking for the recorded Relative activity Cyclin A Binding of the following substance: H-Thi-Ala-Lys-Arg-Arg-Leu-Ile Phe-NH2 (XAKRRLIF; N-terminal Thi, C-terminal amide)
result: 0.2

query: Dear colleague, I am looking for the recorded Relative activity Cyclin A Binding of the following substance: H-Phe-Ala-Lys-Arg-Arg-Leu.Ile Phe-NH2 (H-FAKRRLIF-NH2)
result: 1

query: Dear colleague, I am looking for the recorded Relative activity Cyclin A Binding of the following substance: H-Hse-Ala-Lys-Arg-Arg-Leu-Ile Phe-NH2 (XAKRRLIF; N-terminal Hse, C-terminal amide)
result: 2

###

- targetOrTestSystem: CDK2/cyclin A (Homo sapiens, UniProt P20248)
- assayDetails: CDK2/cyclin A kinase assay, substrate pRb(773-928)
- Type: biochemical
- conditionDescription: Phe159 substitutions; relative to H-His-Ala-Lys-Arg-Arg-Leu-Ile-Phe-NH2 (=1); pRb substrate, [ATP] = 100 μM
Square brackets hold non-standard residues; d marks the D form. Ends that are not written are not given here. 2Nal = N[C@@H](Cc1ccc2ccccc2c1)C(=O)O
experimentalReadout: Relative activity Kinase Inhibition
Answer using only a numeral; do not append any unit.

query: Dear colleague, I am looking for the recorded Relative activity Kinase Inhibition of the following substance: H-His-Ala-Lys-Arg-Arg-Leu-Ile-2Nap-NH2 (H-HAKRRLI[2Nal]-NH2; SMILES CC[C@H](C)[C@H](NC(=O)[C@H](CC(C)C)NC(=O)[C@H](CCCNC(=N)N)NC(=O)[C@H](CCCNC(=N)N)NC(=O)[C@H](CCCCN)NC(=O)[C@H](C)NC(=O)[C@@H](N)Cc1c[nH]cn1)C(=O)N[C@@H](Cc1ccc2ccccc2c1)C(N)=O)
result: 1.2

query: Dear colleague, I am looking for the recorded Relative activity Kinase Inhibition of the following substance: `HAKRRLIY-NH2`
result: 0.3

###

For each entry below, report its Relative activity Cyclin A Binding value.
- targetOrTestSystem: Cyclin A (Homo sapiens, UniProt P20248)
- Sequence (P20248 whole entry): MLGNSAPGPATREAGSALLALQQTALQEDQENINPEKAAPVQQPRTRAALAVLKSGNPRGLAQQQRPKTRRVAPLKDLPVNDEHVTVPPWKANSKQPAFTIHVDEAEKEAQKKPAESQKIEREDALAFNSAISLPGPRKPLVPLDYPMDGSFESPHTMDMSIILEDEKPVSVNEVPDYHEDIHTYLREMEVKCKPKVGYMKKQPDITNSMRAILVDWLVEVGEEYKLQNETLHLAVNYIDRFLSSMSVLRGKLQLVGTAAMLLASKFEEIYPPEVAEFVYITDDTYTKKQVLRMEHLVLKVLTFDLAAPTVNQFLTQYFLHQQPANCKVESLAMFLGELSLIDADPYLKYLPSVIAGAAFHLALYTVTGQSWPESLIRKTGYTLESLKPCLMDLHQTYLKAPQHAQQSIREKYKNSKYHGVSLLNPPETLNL
- assayDetails: Cyclin A binding assay, immobilised biotinyl-Ahx-[…]NH2
- conditionDescription: Phe159 substitutions; relative to H-His-Ala-Lys-Arg-Arg-Leu-Ile-Phe-NH2 (=1)
Square brackets hold non-standard residues; d marks the D form. Ends that are not written are not given here. Phe(3-F) = N[C@@H](Cc1cccc(F)c1)C(=O)O
Answer using only a numeral; do not append any unit.

query: Dear colleague, I am looking for the recorded Relative activity Cyclin A Binding of the following substance: `HAKRRLIY-NH2`
result: 0.2

query: Dear colleague, I am looking for the recorded Relative activity Cyclin A Binding of the following substance: H-His-Ala-Lys-Arg-Arg-Leu-Ile-mFPhe-NH2 (H-HAKRRLI[Phe(3-F)]-NH2; SMILES CC[C@H](C)[C@H](NC(=O)[C@H](CC(C)C)NC(=O)[C@H](CCCNC(=N)N)NC(=O)[C@H](CCCNC(=N)N)NC(=O)[C@H](CCCCN)NC(=O)[C@H](C)NC(=O)[C@@H](N)Cc1c[nH]cn1)C(=O)N[C@@H](Cc1cccc(F)c1)C(N)=O)
result: 0.8

###

- targetOrTestSystem: Cyclin A (Homo sapiens, UniProt P20248)
- assayDetails: Cyclin A binding assay, immobilised biotinyl-Ahx-[…]NH2
- conditionDescription: relative to SEQ ID No. 36 = 1; competitive cyclin A binding, immobilised biotinyl-Ahx-His-Ala-Lys-Arg-Arg-Leu-Ile-Phe-NH2
Numbered stars: 1 amine (or outer) side, 2 acyl side, 3 side chain; on linkers, the order of the positions; unused ones are H or OH. Square brackets hold non-standard residues; d marks the D form. Dhp = Dehydrophenylalanine, O=C(/C(=C/c1ccccc1)N[*:1])[*:2]; Phe(ol) = N[C@H](CO)Cc1ccccc1; dPse = not defined here; Pse = Phenylserine
For each entry below, report its Relative activity Cyclin A Binding value.

query: Dear colleague, I am looking for the recorded Relative activity Cyclin A Binding of the following substance: 113 (H-HSKRRLI[dPse]-OH; reading uncertain) [compound 113]
result: <0.1

query: Dear colleague, I am looking for the recorded Relative activity Cyclin A Binding of the following substance: 118 (H-HAKRRLI[Dhp]-OH; not fully specified) [compound 118]
result: 0.2

query: Dear colleague, I am looking for the recorded Relative activity Cyclin A Binding of the following substance: 120 (H-HAKRRLI[Phe(ol)]) [compound 120]
result: 1.0

query: Dear colleague, I am looking for the recorded Relative activity Cyclin A Binding of the following substance: 111 (H-HAKRRLI[dPse]-OH; reading uncertain) [compound 111]
result: 0.1

query: Dear colleague, I am looking for the recorded Relative activity Cyclin A Binding of the following substance: 110 (H-HAKRRLI[Pse]-OH) [compound 110]
result: 0.2

query: Dear colleague, I am looking for the recorded Relative activity Cyclin A Binding of the following substance: 112 (H-HSKRRLI[Pse]-OH) [compound 112]
result: <0.1

###

- targetOrTestSystem: CDK2/cyclin A (Homo sapiens, UniProt P20248)
- assayDetails: CDK2/cyclin A kinase assay, substrate pRb(773-928)
- Format: biochemical
- conditionDescription: multiple substitutions (Example 22); relative to SEQ ID No. 36 = 1; CDK2/cyclin A kinase assay, pRb substrate, [ATP] = 100 μM
Square brackets hold non-standard residues; d marks the D form. Phe(4-F) = N[C@@H](Cc1ccc(F)cc1)C(=O)O
For each entry below, report its Relative activity Kinase Inhibition value.
Answer using only a numeral; do not append any unit.

query: Dear colleague, I am looking for the recorded Relative activity Kinase Inhibition of the following substance: 127 (H-AAKQRLI[Phe(4-F)]-NH2; SMILES CC[C@H](C)[C@H](NC(=O)[C@H](CC(C)C)NC(=O)[C@H](CCCNC(=N)N)NC(=O)[C@H](CCC(N)=O)NC(=O)[C@H](CCCCN)NC(=O)[C@H](C)NC(=O)[C@H](C)N)C(=O)N[C@@H](Cc1ccc(F)cc1)C(N)=O) [compound 127]
result: 4

query: Dear colleague, I am looking for the recorded Relative activity Kinase Inhibition of the following substance: 123 (H-AAKRRLI[Phe(4-F)]-NH2; SMILES CC[C@H](C)[C@H](NC(=O)[C@H](CC(C)C)NC(=O)[C@H](CCCNC(=N)N)NC(=O)[C@H](CCCNC(=N)N)NC(=O)[C@H](CCCCN)NC(=O)[C@H](C)NC(=O)[C@H](C)N)C(=O)N[C@@H](Cc1ccc(F)cc1)C(N)=O) [compound 123]
result: 80
